Tested on: PHK
Test: Kinase panel: PHK
Assay type: biochemical, human/mammalian
Condition Description: compound at 10 μM

| Compound | % of activity respect of the control [%] |
| --- | --- |
| C[C@H](c1ccccc1)n1c(=O)[nH]c2ncc(-c3ccccc3)nc21 | 94 |
| O=c1[nH]c2ncc(-c3ccc(F)cc3)nc2n1CC1CC1 | 97 |
| CC(c1ccccc1)n1c(=O)[nH]c2ncc(-c3ccc(F)cc3)nc21 (stereo not shown) | 103 |
| O=c1[nH]c2ncc(-c3ccc(F)cc3)nc2n1C1CCCCC1 | 110 |

====

Subject Of Test: PKC zeta (Homo sapiens, UniProt Q05513)
Sequence (Q05513 whole entry): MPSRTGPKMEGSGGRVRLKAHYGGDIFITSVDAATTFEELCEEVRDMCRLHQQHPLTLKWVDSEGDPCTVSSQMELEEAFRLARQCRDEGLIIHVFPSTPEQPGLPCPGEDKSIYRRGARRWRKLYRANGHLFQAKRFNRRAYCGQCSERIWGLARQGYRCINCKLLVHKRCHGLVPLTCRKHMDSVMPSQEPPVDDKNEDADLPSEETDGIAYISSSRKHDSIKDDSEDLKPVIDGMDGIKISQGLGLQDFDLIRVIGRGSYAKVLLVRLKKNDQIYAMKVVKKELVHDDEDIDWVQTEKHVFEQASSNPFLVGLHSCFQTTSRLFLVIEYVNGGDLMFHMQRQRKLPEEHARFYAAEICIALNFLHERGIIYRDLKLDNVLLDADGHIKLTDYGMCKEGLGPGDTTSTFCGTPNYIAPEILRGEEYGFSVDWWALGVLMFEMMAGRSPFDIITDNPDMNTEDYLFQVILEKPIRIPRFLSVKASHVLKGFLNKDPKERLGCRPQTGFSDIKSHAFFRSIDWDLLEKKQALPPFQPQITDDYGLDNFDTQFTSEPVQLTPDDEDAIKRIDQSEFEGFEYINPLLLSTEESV
Test: Kinase panel: PKC zeta
Type: biochemical, human/mammalian
Condition Description: compound at 10 μM, read-out: % of activity respect of the control
Readout Type: remaining activity at 10 µM (%)

| Compound | Readout Type | Reading |
| --- | --- | --- |
| CC(c1ccccc1)n1c(=O)[nH]c2ncc(-c3ccc(F)cc3)nc21 (stereo not shown) | remaining activity at 10 µM | 94 |
| C[C@H](c1ccccc1)n1c(=O)[nH]c2ncc(-c3ccccc3)nc21 | remaining activity at 10 µM | 88 |
| O=c1[nH]c2ncc(-c3ccc(F)cc3)nc2n1CC1CC1 | remaining activity at 10 µM | 90 |
| O=c1[nH]c2ncc(-c3ccc(F)cc3)nc2n1C1CCCCC1 | remaining activity at 10 µM | 90 |

====

Quick reference for remaining activity at 10 µM among some compounds
Subject Of Test: PAK5 (Homo sapiens, UniProt Q9P286)
Sequence (Q9P286 whole entry): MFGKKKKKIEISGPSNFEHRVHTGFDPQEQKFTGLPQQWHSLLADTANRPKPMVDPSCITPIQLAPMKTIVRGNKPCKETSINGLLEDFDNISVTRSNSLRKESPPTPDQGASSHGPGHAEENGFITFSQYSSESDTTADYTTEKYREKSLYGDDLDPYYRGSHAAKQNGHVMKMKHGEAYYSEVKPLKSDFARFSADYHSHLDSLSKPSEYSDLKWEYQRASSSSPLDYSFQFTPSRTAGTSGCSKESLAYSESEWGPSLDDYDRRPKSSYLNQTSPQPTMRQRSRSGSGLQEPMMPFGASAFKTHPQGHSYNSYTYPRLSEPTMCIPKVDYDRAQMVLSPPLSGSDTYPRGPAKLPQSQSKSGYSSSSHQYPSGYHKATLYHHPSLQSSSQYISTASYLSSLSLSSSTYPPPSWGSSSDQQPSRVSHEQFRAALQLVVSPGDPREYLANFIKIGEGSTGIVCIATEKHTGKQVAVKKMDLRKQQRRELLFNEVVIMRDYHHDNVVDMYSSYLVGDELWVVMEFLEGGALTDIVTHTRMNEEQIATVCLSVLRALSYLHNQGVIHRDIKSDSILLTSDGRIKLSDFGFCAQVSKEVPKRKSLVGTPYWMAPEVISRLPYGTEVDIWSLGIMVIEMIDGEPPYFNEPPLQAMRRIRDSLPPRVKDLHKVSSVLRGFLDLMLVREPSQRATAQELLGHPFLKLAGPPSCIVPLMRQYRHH
Test: Kinase panel: PAK5
Type: biochemical, human/mammalian
Condition Description: compound at 10 μM, read-out: % of activity respect of the control
Readout Type: remaining activity at 10 µM

| Compound | Readout Type | Reading |
| --- | --- | --- |
| O=c1[nH]c2ncc(-c3ccc(F)cc3)nc2n1CC1CC1 | remaining activity at 10 µM | 95% |
| CC(c1ccccc1)n1c(=O)[nH]c2ncc(-c3ccc(F)cc3)nc21 (stereo not shown) | remaining activity at 10 µM | 84% |
| O=c1[nH]c2ncc(-c3ccc(F)cc3)nc2n1C1CCCCC1 | remaining activity at 10 µM | 100% |
| C[C@H](c1ccccc1)n1c(=O)[nH]c2ncc(-c3ccccc3)nc21 | remaining activity at 10 µM | 80% |

====

Subject Of Test: DYRK2 (Homo sapiens, UniProt Q92630)
Sequence (Q92630 whole entry): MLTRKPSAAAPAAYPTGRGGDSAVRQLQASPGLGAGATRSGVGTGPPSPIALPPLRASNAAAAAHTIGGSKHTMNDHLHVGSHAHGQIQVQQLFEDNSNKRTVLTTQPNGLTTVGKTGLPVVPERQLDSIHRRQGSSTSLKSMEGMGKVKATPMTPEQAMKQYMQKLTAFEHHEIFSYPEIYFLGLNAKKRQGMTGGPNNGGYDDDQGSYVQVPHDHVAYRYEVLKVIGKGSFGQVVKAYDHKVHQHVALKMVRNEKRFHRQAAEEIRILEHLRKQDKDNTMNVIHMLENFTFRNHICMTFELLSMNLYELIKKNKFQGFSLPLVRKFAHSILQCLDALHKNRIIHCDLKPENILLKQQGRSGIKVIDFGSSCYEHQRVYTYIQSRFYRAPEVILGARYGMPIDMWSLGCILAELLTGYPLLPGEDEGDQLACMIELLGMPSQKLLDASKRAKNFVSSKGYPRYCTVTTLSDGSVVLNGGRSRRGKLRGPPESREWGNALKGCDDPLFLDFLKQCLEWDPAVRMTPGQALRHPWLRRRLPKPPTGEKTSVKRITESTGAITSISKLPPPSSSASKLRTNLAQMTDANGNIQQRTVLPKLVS
Test: Kinase panel: DYRK2
Assay type: biochemical, human/mammalian
Condition Description: compound at 10 μM, read-out: % of activity respect of the control

| Compound | remaining activity at 10 µM |
| --- | --- |
| O=c1[nH]c2ncc(-c3ccc(F)cc3)nc2n1C1CCCCC1 | 99% |
| O=c1[nH]c2ncc(-c3ccc(F)cc3)nc2n1CC1CC1 | 94% |
| C[C@H](c1ccccc1)n1c(=O)[nH]c2ncc(-c3ccccc3)nc21 | 89% |
| CC(c1ccccc1)n1c(=O)[nH]c2ncc(-c3ccc(F)cc3)nc21 (stereo not shown) | 100% |

====

Subject Of Test: Src (Homo sapiens)
Sequence (P12931 whole entry): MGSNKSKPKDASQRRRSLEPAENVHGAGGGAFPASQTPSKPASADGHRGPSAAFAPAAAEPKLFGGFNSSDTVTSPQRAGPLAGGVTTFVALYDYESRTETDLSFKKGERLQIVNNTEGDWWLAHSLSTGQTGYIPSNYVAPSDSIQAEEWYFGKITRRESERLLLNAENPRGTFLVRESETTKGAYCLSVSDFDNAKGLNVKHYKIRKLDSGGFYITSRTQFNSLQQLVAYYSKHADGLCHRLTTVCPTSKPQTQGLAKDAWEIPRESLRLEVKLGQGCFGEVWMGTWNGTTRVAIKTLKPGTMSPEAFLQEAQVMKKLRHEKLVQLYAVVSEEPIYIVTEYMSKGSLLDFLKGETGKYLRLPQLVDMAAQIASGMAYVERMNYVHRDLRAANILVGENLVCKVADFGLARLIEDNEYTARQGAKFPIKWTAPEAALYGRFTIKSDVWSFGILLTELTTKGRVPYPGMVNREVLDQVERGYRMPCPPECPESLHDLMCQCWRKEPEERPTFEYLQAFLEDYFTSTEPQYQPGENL
Test: Kinase panel: Src
Format: biochemical, human/mammalian
Condition Description: compound at 10 μM, read-out: % of activity respect of the control
Quick reference for remaining activity at 10 µM among some compounds
Readout Type: remaining activity at 10 µM (%)

| Compound | Readout Type | Reading |
| --- | --- | --- |
| O=c1[nH]c2ncc(-c3ccc(F)cc3)nc2n1CC1CC1 | remaining activity at 10 µM | 98 |
| C[C@H](c1ccccc1)n1c(=O)[nH]c2ncc(-c3ccccc3)nc21 | remaining activity at 10 µM | 70 |
| CC(c1ccccc1)n1c(=O)[nH]c2ncc(-c3ccc(F)cc3)nc21 (stereo not shown) | remaining activity at 10 µM | 80 |
| O=c1[nH]c2ncc(-c3ccc(F)cc3)nc2n1C1CCCCC1 | remaining activity at 10 µM | 94 |

====

Subject Of Test: MST4 (Homo sapiens, UniProt Q9P289)
Sequence (Q9P289 whole entry): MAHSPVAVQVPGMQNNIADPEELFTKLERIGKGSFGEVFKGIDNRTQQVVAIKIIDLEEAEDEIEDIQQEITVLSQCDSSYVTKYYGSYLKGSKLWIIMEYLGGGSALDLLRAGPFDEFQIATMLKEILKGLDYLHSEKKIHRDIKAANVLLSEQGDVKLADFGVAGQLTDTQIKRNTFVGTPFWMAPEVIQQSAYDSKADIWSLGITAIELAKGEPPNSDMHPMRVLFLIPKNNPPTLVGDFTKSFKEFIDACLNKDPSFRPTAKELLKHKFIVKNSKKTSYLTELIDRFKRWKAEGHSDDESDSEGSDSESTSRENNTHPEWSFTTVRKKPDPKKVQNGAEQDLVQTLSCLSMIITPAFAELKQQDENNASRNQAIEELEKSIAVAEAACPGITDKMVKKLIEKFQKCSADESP
Test: Kinase panel: MST4
Assay type: biochemical, human/mammalian
Condition Description: compound at 10 μM, read-out: % of activity respect of the control

| Molecule | Unit Abbrev | remaining activity at 10 µM |
| --- | --- | --- |
| O=c1[nH]c2ncc(-c3ccc(F)cc3)nc2n1CC1CC1 | % | 92 |
| O=c1[nH]c2ncc(-c3ccc(F)cc3)nc2n1C1CCCCC1 | % | 100 |
| CC(c1ccccc1)n1c(=O)[nH]c2ncc(-c3ccc(F)cc3)nc21 (stereo not shown) | % | 90 |
| C[C@H](c1ccccc1)n1c(=O)[nH]c2ncc(-c3ccccc3)nc21 | % | 88 |

====

Quick reference for remaining activity at 10 µM among some molecules
Subject Of Test: DYRK1A (Homo sapiens)
Test: Kinase panel: DYRK1A
Format: biochemical, human/mammalian
Condition Description: compound at 10 μM, read-out: % of activity respect of the control
Readout Type: remaining activity at 10 µM (%)

| Molecule | Reading |
| --- | --- |
| O=c1[nH]c2ncc(-c3ccc(F)cc3)nc2n1C1CCCCC1 | 93 |
| C[C@H](c1ccccc1)n1c(=O)[nH]c2ncc(-c3ccccc3)nc21 | 85 |
| O=c1[nH]c2ncc(-c3ccc(F)cc3)nc2n1CC1CC1 | 113 |
| CC(c1ccccc1)n1c(=O)[nH]c2ncc(-c3ccc(F)cc3)nc21 (stereo not shown) | 79 |

====

Quick reference for remaining activity at 10 µM among some compounds
Subject Of Test: UniProt P31749
Sequence (P31749 whole entry): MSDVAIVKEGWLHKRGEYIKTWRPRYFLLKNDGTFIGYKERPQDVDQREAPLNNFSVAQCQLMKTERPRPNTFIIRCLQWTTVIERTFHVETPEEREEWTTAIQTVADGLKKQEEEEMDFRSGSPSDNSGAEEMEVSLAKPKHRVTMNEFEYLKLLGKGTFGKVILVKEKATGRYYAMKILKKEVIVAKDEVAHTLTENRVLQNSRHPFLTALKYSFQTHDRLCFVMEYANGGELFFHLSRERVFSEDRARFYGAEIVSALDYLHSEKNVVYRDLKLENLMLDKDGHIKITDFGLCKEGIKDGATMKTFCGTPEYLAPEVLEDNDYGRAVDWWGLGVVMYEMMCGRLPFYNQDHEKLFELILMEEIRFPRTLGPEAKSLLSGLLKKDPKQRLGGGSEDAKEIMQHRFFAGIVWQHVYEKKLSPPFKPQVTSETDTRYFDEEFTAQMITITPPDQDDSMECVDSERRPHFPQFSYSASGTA
Test: Kinase panel: PKBa
Format: biochemical, human/mammalian
Condition Description: compound at 10 μM, read-out: % of activity respect of the control
Readout Type: remaining activity at 10 µM (%)

| Compound | Readout Type | Unit Abbrev | Reading |
| --- | --- | --- | --- |
| CC(c1ccccc1)n1c(=O)[nH]c2ncc(-c3ccc(F)cc3)nc21 (stereo not shown) | remaining activity at 10 µM | % | 99 |
| O=c1[nH]c2ncc(-c3ccc(F)cc3)nc2n1CC1CC1 | remaining activity at 10 µM | % | 96 |
| C[C@H](c1ccccc1)n1c(=O)[nH]c2ncc(-c3ccccc3)nc21 | remaining activity at 10 µM | % | 89 |
| O=c1[nH]c2ncc(-c3ccc(F)cc3)nc2n1C1CCCCC1 | remaining activity at 10 µM | % | 102 |

====

Quick reference for remaining activity at 10 µM among some molecules
Subject Of Test: CAMK1 (Homo sapiens, UniProt Q14012)
Sequence (Q14012 whole entry): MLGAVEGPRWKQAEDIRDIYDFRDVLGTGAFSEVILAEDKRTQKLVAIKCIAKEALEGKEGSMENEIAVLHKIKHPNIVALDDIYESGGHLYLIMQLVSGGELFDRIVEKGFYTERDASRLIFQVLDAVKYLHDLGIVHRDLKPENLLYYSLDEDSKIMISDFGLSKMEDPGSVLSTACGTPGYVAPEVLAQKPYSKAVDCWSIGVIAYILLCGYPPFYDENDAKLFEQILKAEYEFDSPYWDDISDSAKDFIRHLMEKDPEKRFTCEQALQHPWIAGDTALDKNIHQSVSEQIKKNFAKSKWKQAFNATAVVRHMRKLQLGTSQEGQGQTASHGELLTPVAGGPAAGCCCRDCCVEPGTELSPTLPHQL
Test: Kinase panel: CAMK1
Format: biochemical, human/mammalian
Condition Description: compound at 10 μM, read-out: % of activity respect of the control

| Molecule | remaining activity at 10 µM (%) |
| --- | --- |
| O=c1[nH]c2ncc(-c3ccc(F)cc3)nc2n1CC1CC1 [Compound 10] | 83 |
| CC(c1ccccc1)n1c(=O)[nH]c2ncc(-c3ccc(F)cc3)nc21 (stereo not shown) [Compound 1] | 87 |
| C[C@H](c1ccccc1)n1c(=O)[nH]c2ncc(-c3ccccc3)nc21 [Compound 14] | 72 |
| O=c1[nH]c2ncc(-c3ccc(F)cc3)nc2n1C1CCCCC1 [Compound 12] | 88 |

====

System: MRC5 cells (human lung fibroblasts)
Test: MRC5 proliferation assay
Assay type: cell-based
Condition Description: geometric mean of two or more determinations
Experimental: Trypanosome and MRC5 proliferation assay: Measurement of inhibition of the proliferation of MRC5 cells (human lung fibroblasts) and T. brucei bloodstream-stage cells was performed using a modification of a cell viability assay previously described.[35, 36] […] Resazurin was then added to a final concentration of 50 μM, and plates were incubated as above for a further 4 h before being read on a BioTek Flx800 fluorescence plate reader.
pEC50: −log10 of the molar value.
Quick reference for pEC50 among some molecules
Readout Type: pEC50

| Molecule | Reading |
| --- | --- |
| COCC(C)n1c(=O)[nH]c2ncc(-c3ccccc3)nc21 (stereo not drawn) [Compound 39] | < 4.30 |
| O=c1[nH]c2ncc(-c3ccccc3F)nc2n1C1CCCCC1 [Compound 26] | < 4.30 |
| CN(C)CCn1c(=O)[nH]c2ncc(-c3ccccc3)nc21 [Compound 41] | < 4.30 |
| COCCCn1c(=O)[nH]c2ncc(-c3ccc(OC(F)(F)F)cc3)nc21 [Compound 2] | 4.82 |
| O=c1[nH]c2ncc(-c3cccc(CO)c3)nc2n1C1CCCCC1 [Compound 24] | < 4.30 |
| O=c1[nH]c2ncc(N3CCOCC3)nc2n1C1CCCCC1 [Compound 32] | < 4.30 |
| CNC(=O)c1ccc(-c2cnc3[nH]c(=O)n(C4CCCCC4)c3n2)cc1 [Compound 22] | < 4.30 |
| C[C@H](c1ccccc1)n1c(=O)[nH]c2nccnc21 [Compound 16] | < 4.30 |
| C[C@H](c1ccccc1)n1c(=O)[nH]c2ncc(-c3ccc(OC(F)(F)F)cc3)nc21 [Compound 15] | 4.41 |
| O=c1[nH]c2ncc(-c3ccncc3)nc2n1C1CCCCC1 [Compound 29] | < 4.30 |
| O=c1[nH]c2ncc(-c3cccnc3)nc2n1C1CCCCC1 [Compound 30] | < 4.30 |
| O=c1[nH]c2ncc(N3CCOCC3)cc2n1C1CCCCC1 [Compound 57] | < 4.30 |
